# log10(EC50) listing for each entry below
Biological target: CFTR in F508del/F508del primary CF hBE cells (Homo sapiens, UniProt P13569, DEL508-508)
Construct: Primary cystic fibrosis human bronchial epithelial (CF hBE) cells were expanded and cultured; endogenous in cells
Sequence (P13569 with tags, fused parts or gaps DEL508-508): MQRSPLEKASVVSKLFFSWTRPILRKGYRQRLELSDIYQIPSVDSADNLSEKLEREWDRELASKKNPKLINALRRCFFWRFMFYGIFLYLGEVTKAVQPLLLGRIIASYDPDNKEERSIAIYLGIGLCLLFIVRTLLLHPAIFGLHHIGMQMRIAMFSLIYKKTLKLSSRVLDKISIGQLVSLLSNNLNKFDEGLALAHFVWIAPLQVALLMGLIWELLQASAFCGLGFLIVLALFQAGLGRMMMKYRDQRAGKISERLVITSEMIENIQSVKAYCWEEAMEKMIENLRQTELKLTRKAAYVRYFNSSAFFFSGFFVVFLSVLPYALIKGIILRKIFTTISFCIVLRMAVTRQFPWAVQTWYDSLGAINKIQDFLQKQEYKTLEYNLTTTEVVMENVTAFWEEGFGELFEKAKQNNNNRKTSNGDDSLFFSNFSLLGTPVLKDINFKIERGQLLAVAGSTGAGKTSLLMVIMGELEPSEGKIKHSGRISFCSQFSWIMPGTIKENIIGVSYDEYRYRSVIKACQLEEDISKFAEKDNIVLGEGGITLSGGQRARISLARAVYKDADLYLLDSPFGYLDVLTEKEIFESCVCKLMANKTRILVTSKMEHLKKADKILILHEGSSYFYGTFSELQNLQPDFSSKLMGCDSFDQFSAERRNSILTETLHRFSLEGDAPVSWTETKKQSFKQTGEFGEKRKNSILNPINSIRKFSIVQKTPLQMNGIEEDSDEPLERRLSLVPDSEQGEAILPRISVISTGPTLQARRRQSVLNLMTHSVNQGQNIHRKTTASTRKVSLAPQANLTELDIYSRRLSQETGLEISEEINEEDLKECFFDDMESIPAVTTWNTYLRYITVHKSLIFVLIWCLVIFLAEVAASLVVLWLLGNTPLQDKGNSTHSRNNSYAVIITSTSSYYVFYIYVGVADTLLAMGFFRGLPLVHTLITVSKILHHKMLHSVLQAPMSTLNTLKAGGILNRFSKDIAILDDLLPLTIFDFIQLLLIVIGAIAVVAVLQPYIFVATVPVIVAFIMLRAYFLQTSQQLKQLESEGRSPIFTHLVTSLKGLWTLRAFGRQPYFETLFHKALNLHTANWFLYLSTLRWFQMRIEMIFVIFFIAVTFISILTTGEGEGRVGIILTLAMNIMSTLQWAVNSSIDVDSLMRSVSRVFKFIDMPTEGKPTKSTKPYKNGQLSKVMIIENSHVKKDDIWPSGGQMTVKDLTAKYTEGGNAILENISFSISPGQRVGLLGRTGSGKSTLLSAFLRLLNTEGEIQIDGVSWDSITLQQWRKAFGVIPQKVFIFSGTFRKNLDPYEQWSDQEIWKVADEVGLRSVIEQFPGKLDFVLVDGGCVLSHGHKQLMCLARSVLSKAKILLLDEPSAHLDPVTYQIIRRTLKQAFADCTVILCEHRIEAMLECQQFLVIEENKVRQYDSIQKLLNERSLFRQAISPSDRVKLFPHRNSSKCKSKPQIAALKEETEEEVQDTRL
Experiment: Ussing chamber electrophysiology assay of CFTR potentiation in F508del/F508del CF bronchial epithelial cells (27° C.)
Scale type: logarithmic (base 10). Underlying EC50 unit: nM.

Worked examples, 3 compounds total:
What value of log10(EC50) has been recorded for this entry: CC(c1cn(-c2ccccc2F)nn1)n1cc(-c2ccc(C#N)c(F)c2)c2c(N)ncnc21 (stereo not drawn) [Example 239]
1.92

Next compound up: CSc1ccc(-c2cn(C(C)c3cn(-c4ccccc4F)nn3)c3ncnc(N)c23)c(F)c1 (stereo not drawn)
1.54

Next compound up: CC(c1cnc(-c2ccccc2F)[nH]1)n1cc(-c2ccc(-n3nccn3)cc2)c2c(N)ncnc21 (stereo not drawn)
1.49

Next item in the queue.
What value of log10(EC50) has been recorded for this entry: CCC(c1cn(-c2ccc(F)cc2F)nn1)n1cc(-c2cnc(OC)c(F)c2)c2c(N)ncnc21 (single isomer, unassigned; enantiomer 1) [Example 165]
2.39

Sourced from patent US12612409B2
